Data credit: BigSolDB 2.1

settings: in methyl acetate, 297.85 K

STRUCTURE AS SMILES	solubility (mole fraction)
Nc1ncccn1	0.0488

* * *

conditions: in methanol, 312.55 K

STRUCTURE AS SMILES	solubility (mole fraction)
Nc1ncccn1	0.121

* * *

details: in ethanol, 302.65 K

STRUCTURE AS SMILES	solubility (mole fraction)
Nc1ncccn1	0.0485

* * *

conditions: in 2-pentanone, 288.15 K
MEASURED ENDPOINT: solubility (mole fraction)

STRUCTURE AS SMILES	MEASURED ENDPOINT	RECORDED VALUE
Nc1ncccn1	solubility (mole fraction)	0.027

* * *

settings: in ethanol, 278.25 K

STRUCTURE AS SMILES	solubility (mole fraction)
Nc1ncccn1	0.0138
